This collection of values is drawn from patent US11028078B2.

target: CYP3A4 (Homo sapiens); construct: purchased ThermoFisher P2857; host or cells: baculosomes; assay: CYP3A4 enzyme assay (Vivid CYP3A4 Green Screening Kit); type: in vitro ADME; conditions: % enzyme inhibition at 1 μM drug / % enzyme inhibition at 1 μM itraconazole
Sequence (P08684 whole entry): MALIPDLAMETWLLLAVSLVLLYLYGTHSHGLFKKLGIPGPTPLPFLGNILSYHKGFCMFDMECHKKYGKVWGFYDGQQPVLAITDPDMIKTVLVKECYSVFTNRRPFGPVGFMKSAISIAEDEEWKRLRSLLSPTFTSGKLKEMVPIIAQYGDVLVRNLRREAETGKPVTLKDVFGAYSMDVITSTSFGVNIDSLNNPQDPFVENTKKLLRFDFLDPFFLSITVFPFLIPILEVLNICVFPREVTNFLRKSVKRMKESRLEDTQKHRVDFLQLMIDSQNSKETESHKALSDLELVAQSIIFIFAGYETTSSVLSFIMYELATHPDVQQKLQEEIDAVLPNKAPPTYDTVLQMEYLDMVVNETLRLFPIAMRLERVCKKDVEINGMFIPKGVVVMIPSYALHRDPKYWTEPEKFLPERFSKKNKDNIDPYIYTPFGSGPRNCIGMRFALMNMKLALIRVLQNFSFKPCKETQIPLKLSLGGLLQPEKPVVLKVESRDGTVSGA
QUANTITY NAME: CYP3A4 Inhibition (compared to intracozanole at 1 μm)

- CCC(C)n1ncn(-c2ccc(N3CCN(c4ccc(OC[C@@H]5CO[C@@](Cn6cnnn6)(c6ccc(Cl)cc6Cl)O5)cc4)CC3)cc2)c1=O (stereo partly drawn): 0.02
- CCC(C)n1ncn(-c2ccc(N3CCN(c4ccc(OC[C@@H]5CO[C@@](Cn6cccn6)(c6ccc(Cl)cc6Cl)O5)cc4)CC3)cc2)c1=O (stereo partly drawn): No inhibition
- CCC(C)n1ncn(-c2ccc(N3CCN(c4ccc(OC[C@@H]5CO[C@@](Cc6ccccc6)(c6ccc(Cl)cc6Cl)O5)cc4)CC3)cc2)c1=O (stereo partly drawn): No inhibition
